# Tested on: A549/ATCC NSCLC
# Experiment: NCI-60 one-dose screen, 48 h (100 = growth as untreated, 0 = no growth, -100 = all killed)
# Conditions Used: 10 µM unless noted
# Description: Growth inhibition of the A549/ATCC human Non-Small Cell Lung tumor cell line is measured as a screen for anti-cancer activity. Cells are grown in 96 well plates and exposed to the test compound for 48 hours. Compounds are tested at a single concentration, which is 10^-5 M for most compounds. The reported endpoint is percent growth (GI% or GIPRCNT), where numbers from 0 - 100% represent growth inhibition, and numbers from -100% - 0 represent cell death. […]
This is part of a sample that, as a whole, favours compounds with a hit. Of some 83,000 tested, about 20% had one in any assay. Activity calls are given as the source filed them. How the source made its calls: active means growth percent below 10; inactive means the rest.
The entries below are paired with their reported growth.

Solved cases below.
Compound	System Under Test	Recorded Measurement
C=C(C)C(=O)Nc1ccc(NC(C)C)cc1	A549/ATCC NSCLC	112% (inactive)
O=[N+]([O-])c1ccccc1/C=N\NC(=S)N/N=C/c1ccccc1[N+](=O)[O-]	A549/ATCC NSCLC	74.8% (inactive)
C=CC(=O)Nc1cccc(-c2nc(SC)nc(Nc3ccccc3OC)c2C#N)c1	A549/ATCC NSCLC	-6.83% (active)
O=C1NC(=S)NC(=O)C1CC(=O)n1c(-c2ccccc2)nc2ccccc21	A549/ATCC NSCLC	97.7% (inactive)
Cc1ccc(NS(=O)(=O)c2ccc(-c3cnc(C4CC4)o3)cc2)cc1C	A549/ATCC NSCLC	27.1% (inactive)

Inquiry: State growth on A549/ATCC NSCLC. Entry: O=C1C=C(O)C(=O)C(CC2=C(O)C(=O)C=C(O)C2=O)=C1O
Reply text: 92% (inactive)

Inquiry: State growth on A549/ATCC NSCLC. Entry: Cc1ccc2oc(=O)cc(C3c4ccc([nH]4)C(c4cc(=O)oc5ccc(C)cc45)c4ccc([nH]4)C(c4cc(=O)oc5ccc(C)cc45)c4ccc([nH]4)C(c4cc(=O)oc5ccc(C)cc45)c4ccc3[nH]4)c2c1 (stereo not drawn)
Reply text: -24.6% (active)

Inquiry: State growth on A549/ATCC NSCLC. Entry: COc1cccc(-c2nc3sccn3c2-c2ccnc(NCCCNS(=O)(=O)c3cccc(Cl)c3)c2)c1
Reply text: 35.8% (inactive)

* * *

# System: NCI-H460 lung
# Experiment: NCI-60 one-dose screen, 48 h
# Conditions Used: 10 µM unless noted
About 83,000 compounds went through this panel and 20% of them were active in at least one assay; those are over-represented in the sample as a whole. Calls of active or inactive are those of the source. Rule for the calls: active = growth percent below 10; inactive = the rest.
Field 'call' accepts active, inactive

Molecule	Assigned Label
CCCCN1CCCn2c1nc1c2c(=O)n(CCC)c(=O)n1CCC	inactive
Cn1ncc2c(=O)nc3c(-c4ccccc4)n[nH]n3c21	inactive

Inquiry: In this assay, the call recorded for N#Cc1c(N)n(CCNC(=O)c2ccccc2)c2nc3ccccc3nc12 was what?
Reply text: inactive

Inquiry: In this assay, the call recorded for COc1cc2c(cc1-c1c(C)noc1C)ncc1nc(C3CCOCC3)n([C@@H](C)COC(F)F)c12 was what?
Reply text: inactive

Inquiry: In this assay, the call recorded for O=C1Nc2cc(-c3ccc(O)cc3)ccc2/C1=C/c1ccc[nH]1 was what?
Reply text: active

Inquiry: In this assay, the call recorded for O=C(N(c1ccccc1)c1ccccc1)n1ccc2nc(Cl)nc(Cl)c21 was what?
Reply text: inactive

Inquiry: In this assay, the call recorded for C=C1c2nc3ccccc3n2C=C(c2ccc(OC)cc2)N1Cc1ccccc1 was what?
Reply text: inactive

Inquiry: In this assay, the call recorded for O=C(COc1cccc(/C=C2\CSc3ccccc3C2=O)c1)Nc1nccs1 was what?
Reply text: inactive

* * *

# System: RPMI-8226 leukemia
# Experiment: NCI-60 one-dose screen, 48 h
# Conditions Used: 10 µM unless noted
This is part of a sample that, as a whole, favours compounds with a hit. Of some 83,000 tested, about 20% had one in any assay. The source made the active and inactive calls. The calls were made as follows: active = growth percent below 10; inactive = the rest.
Field 'call' accepts true (1) for active, false (0) for inactive

Compound	Assigned Label
C=CC(COC(c1ccccc1)(c1ccccc1)c1ccccc1)N(CC)CC (centres undefined)	false (0)
COc1ccc2c(c1)C(=O)/C(=C/c1cccnc1)CC2	true (1)
c1ccc(-c2cc3n4c(-c5ccccc5)nn(-c5ccccc5)c4cnc-3n2)cc1	false (0)
CN1C(=O)C2(SCC(C(=O)NCc3ccccc3)N2C(=O)C2CCCCC2)c2ccccc21 (centres undefined)	false (0)
CCOc1ccc(-n2nc(C(=O)Nc3ccccc3)nc2-c2cc(OC)c(OC)c(OC)c2)cc1	false (0)
COc1cccc(/C=C2\Oc3cc(OCCN4CCCC4)ccc3C2=O)c1	false (0)
CCc1nnc(CNc2ccc(Cl)cc2)o1	false (0)
O=C(Cn1cccc(Nc2ccccc2)c1=O)Nc1ccccc1	false (0)

Lab note: next compound to report on.
Inquiry: In this assay, the call recorded for Cn1ccnc1C(=O)/C=C/c1ccc(CC(=O)Nc2ccccc2)cc1 was what?
Reply text: true (1)

* * *

# Test system: OVCAR-5 ovarian
# Experiment: NCI-60 one-dose screen, 48 h (100 = growth as untreated, 0 = no growth, -100 = all killed)
# Conditions Used: 10 µM unless noted
About 83,000 compounds went through this panel and 20% of them were active in at least one assay; those are over-represented in the sample as a whole. Calls of active or inactive are those of the source. The calls were made as follows: active = growth percent below 10; inactive = the rest.
Assay Readout: growth

Solved cases below.
Compound	System Under Test	Assay Readout	Recorded Measurement
CC[N+](CC)=c1sc2c(s1)C(c1ccc(Cl)cc1)Oc1ccc(Cl)cc1-2 (stereo unspecified)	OVCAR-5 ovarian	growth	15.1% (inactive)
N#Cc1cnn(-c2nc3c(Cl)cccc3s2)c1N	OVCAR-5 ovarian	growth	108% (inactive)
O=C(O)c1ccc(N=CC(=O)c2ccc(-c3ccccc3)cc2)cc1	OVCAR-5 ovarian	growth	92.6% (inactive)

Inquiry: Answer with reported growth of Cn1cc(-c2nonc2-c2c[nH]c3ccc(F)cc23)c2cccnc21
Reply text: 90.9% (inactive)

Inquiry: Answer with reported growth of CC(C)(C)c1cc(C(C)(C)C)cc(S(=O)(=O)Nc2cc3ccccc3cc2C(=O)NCCN)c1
Reply text: 94.8% (inactive)

Inquiry: Answer with reported growth of Nc1ccn(-c2ccc(Br)cc2)c(=O)n1
Reply text: 84% (inactive)

* * *

# Tested on: DU-145 prostate
# Experiment: NCI-60 one-dose screen, 48 h
# Conditions Used: 10 µM unless noted
About 83,000 compounds went through this panel and 20% of them were active in at least one assay; those are over-represented in the sample as a whole. Calls of active or inactive are those of the source. The calls were made as follows: active = growth percent below 10; inactive = the rest.
Field 'call' accepts t for active, f for inactive

Compound	System Under Test	Assigned Label
CCc1nc(N)nc(N)c1C#CC(C)c1cc(-c2ccnc(C)c2)c2oc(C)nc2c1 (configuration not stated)	DU-145 prostate	t
FC(F)(F)c1nc2c(NCc3ccc(-c4ccccc4)cc3)cccc2[nH]1	DU-145 prostate	f
O=C1/C(=C/c2ccc(OCCCOc3ccc(Cl)cc3)cc2)N=C2SCCCN12	DU-145 prostate	f
CC(C)(C)c1cc(/C=N\NC(=O)/C=C/C=C/c2ccc3c(c2)OCO3)c(O)c(C(C)(C)C)c1	DU-145 prostate	f
COc1cc(-c2nc3ccccc3[nH]2)ccc1OCc1nnc(-c2ccc(CC(C)C)cc2)o1	DU-145 prostate	f

Inquiry: In this assay, the call recorded for Cc1cc(N2CCCCCC2)nc(NC2CCCC(Nc3ccnc4cc(Cl)ccc34)C2)n1 (configuration not stated) was what?
Reply text: t

Inquiry: In this assay, the call recorded for CSc1nc(Nc2cccc(NC(=O)CCl)c2)c(C#N)c(-c2cccc([N+](=O)[O-])c2)n1 was what?
Reply text: f

* * *

# Tested on: CCRF-CEM leukemia
# Experiment: NCI-60 one-dose screen, 48 h
# Conditions Used: 10 µM unless noted
This is part of a sample that, as a whole, favours compounds with a hit. Of some 83,000 tested, about 20% had one in any assay. Activity calls are given as the source filed them. Rule for the calls: active = growth percent below 10; inactive = the rest.
Field 'call' accepts yes (active), no (inactive)

Inquiry: In this assay, the call recorded for COc1ccc(-n2nc(C)c3c(Nc4ccc(NC(=O)Nc5ccc(Cl)c(C(F)(F)F)c5)cc4)ncnc32)cc1 was what?
Reply text: no

Inquiry: In this assay, the call recorded for COc1cc(/C=C/C(=O)c2c(C)oc3nc[nH]c(=O)c23)cc(OC)c1OC was what?
Reply text: no

Inquiry: In this assay, the call recorded for COc1ccc(O)c(N=Nc2nccs2)c1 was what?
Reply text: yes

Inquiry: In this assay, the call recorded for CCCn1c(=O)[nH]c(N)c([C@H]2c3ccccc3Oc3[nH]c(=O)n(CCC)c(=O)c32)c1=O was what?
Reply text: no

* * *

# Test system: SNB-75 CNS
# Experiment: NCI-60 one-dose screen, 48 h (100 = growth as untreated, 0 = no growth, -100 = all killed)
# Conditions Used: 10 µM unless noted
About 83,000 compounds went through this panel and 20% of them were active in at least one assay; those are over-represented in the sample as a whole. The source made the active and inactive calls. How the source made its calls: active means growth percent below 10; inactive means the rest.
Assay Readout: growth

Solved cases below.
Molecule	Recorded Measurement
COc1cc(-c2nc3cc(Cl)c(Cl)cc3[nH]2)ccc1OCC(=O)N=Nc1c(O)[nH]c2ccccc12	-90% (active)
CN(C)[C@@H]1C(=O)C(C(=O)NCc2nc3[nH]cnc(=S)c3[nH]2)=C(O)[C@@]2(O)C(=O)C3=C(O)c4c(O)cccc4[C@@](C)(O)[C@H]3C[C@@H]12	61.8% (inactive)
O=C1NC(=S)N[C@H]1CC(=O)n1cnc2ccccc21	69.7% (inactive)
O=C(COc1cccc(/C=C2\CSc3ccccc3C2=O)c1)Nc1nccs1	22.2% (inactive)
Clc1ccc2c(NCCNc3nc(N4CCOCC4)nc4ccccc34)ccnc2c1	-94.4% (active)

Inquiry: Answer with reported growth of CCNc1ncnc2c1cnn2C1CCCO1 (centres undefined)
Reply text: 89.4% (inactive)

Inquiry: Answer with reported growth of COc1cccc(/C=C2\Oc3cc(OCCN4CCCC4)ccc3C2=O)c1
Reply text: 87.3% (inactive)

Inquiry: Answer with reported growth of c1ccc(-c2c(-c3ccccc3)[n+](Cc3ccc4ccccc4c3)c(-c3ccc(-c4nc5ccccc5s4)cc3)n2Cc2ccc3ccccc3c2)cc1
Reply text: -78.8% (active)

Inquiry: Answer with reported growth of O=C(Nc1cccc2[nH]c(C(F)(F)F)nc12)c1ccc(-n2cnnn2)cc1
Reply text: 100% (inactive)

Inquiry: Answer with reported growth of NC(=O)c1cc(Cl)ccc1NC(=O)/C=C/c1ccccc1
Reply text: 0.0967% (active)

Inquiry: Answer with reported growth of Cc1cc(C)c2nc3nc(C)cc(C)c3c(N)c2c1
Reply text: 52.7% (inactive)

Inquiry: Answer with reported growth of COc1ccc(S(=O)(=O)N2CCCCCC2)cc1NC(=O)c1[nH]c(C)c2c1CCCCC2=O
Reply text: 4.93% (active)

Inquiry: Answer with reported growth of CNc1ccc(-c2cc(=O)oc3ccc(Cl)cc23)cc1
Reply text: 40.9% (inactive)

Inquiry: Answer with reported growth of CN1CCN(CCCOc2cccc3nc(Nc4ccc(Cl)c(F)c4)ccc23)CC1
Reply text: 48.2% (inactive)

Inquiry: Answer with reported growth of C=CC(=O)Nc1cccc(-c2nc(SC)nc(Nc3ccccc3OC)c2C#N)c1
Reply text: 24.4% (inactive)

Inquiry: Answer with reported growth of CCOc1ccc(C(C)=O)cc1NC(=O)c1cccc(-c2nnn(CC)n2)c1
Reply text: 6.99% (active)

Inquiry: Answer with reported growth of O=C(Cc1ccc(/C=C/C(=O)c2ncc[nH]2)cc1)Nc1ccccc1
Reply text: 58.4% (inactive)

Inquiry: Answer with reported growth of COc1ccc(-c2nc(SCC(=O)Nc3ccc(C(=O)/C=C/c4ccc(Cl)cc4)cc3)[nH]c(=O)c2C#N)cc1
Reply text: 85.2% (inactive)
